Target: human liver glycogen phosphorylase a (HLGPa) (Homo sapiens, UniProt P06737)
Construct: creating a full-length cDNA fused at the 5′ end to codons for methionine-glycine-alanine-histidine; 6xHis tag (leader Met-Gly-Ala-His6-Gly-Gly) (N); made in house; host or cells: E. coli (bacterial expression plasmid pTXK1007LTev)
Sequence (P06737 2-847 limits assumed): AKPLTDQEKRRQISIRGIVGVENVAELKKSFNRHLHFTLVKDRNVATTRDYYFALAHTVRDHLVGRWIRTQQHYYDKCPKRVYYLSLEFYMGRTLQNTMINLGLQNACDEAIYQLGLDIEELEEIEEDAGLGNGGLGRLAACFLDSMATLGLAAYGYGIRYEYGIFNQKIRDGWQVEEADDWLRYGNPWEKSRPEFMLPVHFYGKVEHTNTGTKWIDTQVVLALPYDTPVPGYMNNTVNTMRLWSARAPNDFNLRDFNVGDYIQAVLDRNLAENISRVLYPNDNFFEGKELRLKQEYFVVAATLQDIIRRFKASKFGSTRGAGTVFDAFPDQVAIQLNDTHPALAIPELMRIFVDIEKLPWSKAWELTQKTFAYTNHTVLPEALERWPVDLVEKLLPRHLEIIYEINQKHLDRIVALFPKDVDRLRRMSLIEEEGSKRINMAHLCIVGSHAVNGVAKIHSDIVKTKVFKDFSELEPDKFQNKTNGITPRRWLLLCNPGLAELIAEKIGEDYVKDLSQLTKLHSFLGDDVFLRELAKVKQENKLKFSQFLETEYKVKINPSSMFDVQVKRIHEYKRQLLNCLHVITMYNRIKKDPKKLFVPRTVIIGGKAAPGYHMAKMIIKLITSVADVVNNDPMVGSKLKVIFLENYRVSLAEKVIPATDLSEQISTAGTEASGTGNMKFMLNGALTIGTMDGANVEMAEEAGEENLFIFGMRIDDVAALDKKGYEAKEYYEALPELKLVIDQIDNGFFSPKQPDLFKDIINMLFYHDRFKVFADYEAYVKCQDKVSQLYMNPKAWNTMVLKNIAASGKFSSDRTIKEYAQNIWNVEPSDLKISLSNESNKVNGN
Assay: Human liver glycogen phosphorylase a enzymatic activity assay (coupled, fluorescent resorufin readout, with and without 10 mM glucose)
Assay type: biochemical
Details: human liver glycogen phosphorylase a enzymatic activity assay
measured.parameter: pIC50
Give bare numbers, as −log10 of the molar value.

# compound, measured.target, pIC50
rows = [
    ("CCc1cccc(CC)c1NC(=O)Nc1cc2ccccc2cc1C(=O)N[C@H](C(=O)O)C1CCCCC1", "human liver glycogen phosphorylase a (HLGPa) (Homo sapiens, UniProt P06737)", 6.23),
]

Respectfully, I request pIC50 for each entry included below.
1. Cc1cc(CC2CC2)cc(C)c1NC(=O)Nc1cc(F)ccc1C(=O)N[C@H](C(=O)O)C1CCCCC1
2. Cc1cc(C)c(NC(=O)Nc2cc(-c3ccc(Cl)cc3)sc2C(=O)NC2(C(=O)O)CCCCC2)c(C)c1
3. Cc1cc(C)c(NC(=O)Nc2cc(-c3ccccc3)ccc2C(=O)N[C@H](C(=O)O)C2CCCCC2)c(C)c1
4. N#Cc1ccc(-c2cc(NC(=O)Nc3c(Cl)cccc3Cl)c(C(=O)O)s2)cc1
5. Cc1cc(C)c(NC(=O)Nc2cc3ccccc3cc2C(=O)NC(C(=O)O)c2ccccc2)c(C)c1 (centres unmarked)
6. Cc1ccccc1NC(=O)Nc1cc2ccccc2cc1C(=O)N[C@@H](Cc1c[nH]c2ccccc12)C(=O)O

Response given:
8.30
8.52
7.77
5.95
7.22
5.43
